ASSAY_SYSTEM: T1, Recombinant human IL-1beta (rhIL-1b) (human, UniProt P01584 117-269)
T1 construct: R&D Systems Cat. No. 201-LB/CF; also called IL-1β; human IL-1β
MEASUREMENT_DESCRIPTION: Biacore low-res, mAb captured, 25C; IL-1β in solution (118 nM) over captured mAb; low-resolution Biacore, 25 C
RECORDED_METRIC: koff
The answer consists of two parts: a number and, after it, its unit.

// worked examples, koff included
{"columns": ["BINDER", "koff"],
 "data": [
  ["9.31.1 (antibody, human IgG4, V domains shown, lambda; also called 9.31.3) VH: QVQLVESGGGLVKPGGSLRLSCAASGFTFSDYYMSWIRQAPGKGLEWVSYIRSSGSTIYYADSVKGRFTISRDNAKNSLYLQMNSLRAEDTAVYYCARTPYSGRYHWYFDLWGRGTLVTVS VL: SYELTQPPSVSVSPGQTARITCSGDALPIKYAYWYQHKSGQAPVLVIYEDSKRPSGIPERFSGSSSGTMATLTISGAQVEDEADYYCYSTDSSGNHRVFGGGTKLTVL", "0.0038 s⁻¹"],
  ["5.5.1 (antibody, IgG4, V domains shown, lambda; also called mAb 5.5.1; Ab 5.5.1) VH: QVQLVESGGGVVQPGRSLRLSCAASGFTFSSYGMHWVRQAPGKGLEWVAVIWYDGDNKYYADSVQGRFTISRDNSKNTLYLQMNSLRPEDTAVYYCARERSSSWYFDYWGQGTLVTVSS VL: QSALTQPASVSGSPGQSITISCTGTSSDVGSYNLVSWYQQHPGKAPKLMIYEVSKRPSGISNRFSGSKSGNTASLTISGLQAEDEADYYCCSYAGSSTWVFGGGTKLTVL", "0.0005 s⁻¹"]
]}

Recorded koff (binder 6.26.1 (antibody, human IgG4, V domains shown, lambda; also called 6.26.4) VH: QLQLQESGPGLVKPSETLSLTCTVSGGSISRSSYYWGWIRQPPGKGLEWMGNIYYSGSTHYNPSLKSRVTISVDTSKNQFSLKLSSVTAADTAVFYCAKGREYISSSGYGMDVWGQGTTVTVS VL: SYELTQPPSVSVSPGQTASITCSGDKLGNKYVCWYQQKPGQSPVLVIFQDSRRPSGIPERFSGSNSGNTATLTISGTQAMDEADYYCQAWDTSTVIFGGGTKLTVL ): 0.00044 s⁻¹

The measured values listed here are drawn from patent US20070065439A1.
